# Measured On: δ-opioid receptor (Mus musculus, UniProt P32300)
# Experimental Protocol: [35S]GTPγS δ-opioid receptor functional assay (EC50, relative efficacy, % inhibition)
# Assay type: biochemical
# Design: NG108-15 cell membranes were purchased from Applied Cell Sciences (Rockville, Md.)
Property Measured: GTPγS δ-opioid receptor Rel Efficacy
Give the value as a plain number.

Previously resolved entries follow.
COc1ccc(Oc2cc(-c3cncc(C#N)c3)ccc2NC[C@@H]2C[C@@H](F)CN2)cc1: 1.0158
COc1ccc(Oc2cc(-c3cncc(C)c3)ccc2NC[C@@H]2C[C@@H](F)CN2)cc1: 0.8756
COc1ccc(Oc2cc(-c3cccnc3)ccc2NC[C@@H]2CCCN2)cc1: 0.9245
Clc1cccc(Cl)c1Oc1cc(-c2ccccc2)ccc1NC[C@@H]1CCCN1: 0.763
NC(=O)c1cccc(Oc2cc(-c3ccccc3)ccc2NC[C@@H]2CCCN2)c1: 0.2668

# GTPγS δ-opioid receptor Rel Efficacy (compound: CCN(CC)C(=O)CCc1ccc(NC[C@@H]2CCCN2)c(Oc2ccc(OC)cc2)c1 ) is 0.8333

Form: compound = COc1ccc(Oc2cc(-c3cncc(C#N)c3)ccc2NC[C@@H]2CCCN2)cc1 ; GTPγS δ-opioid receptor Rel Efficacy = 1.1554

For this compound ( COc1ccc(Oc2cc(-c3cncc(F)c3)ccc2NC[C@@H]2C[C@@H](F)CN2)cc1 ), measured GTPγS δ-opioid receptor Rel Efficacy is 1.0217

Noted for Oc1ccc(Oc2cc(-c3cccnc3)ccc2NC[C@@H]2CCCN2)cc1 : its GTPγS δ-opioid receptor Rel Efficacy reads 0.627

---

# Measured On: Delta Opioid Receptor (Rattus norvegicus, UniProt P33533)
# Construct: the forebrains were homogenized in Tris buffer in a Teflon®-glass homogenizer; from tissue; host or cells: forebrain of male Wistar rats, particulate membrane preparation
# Sequence (P33533 whole entry): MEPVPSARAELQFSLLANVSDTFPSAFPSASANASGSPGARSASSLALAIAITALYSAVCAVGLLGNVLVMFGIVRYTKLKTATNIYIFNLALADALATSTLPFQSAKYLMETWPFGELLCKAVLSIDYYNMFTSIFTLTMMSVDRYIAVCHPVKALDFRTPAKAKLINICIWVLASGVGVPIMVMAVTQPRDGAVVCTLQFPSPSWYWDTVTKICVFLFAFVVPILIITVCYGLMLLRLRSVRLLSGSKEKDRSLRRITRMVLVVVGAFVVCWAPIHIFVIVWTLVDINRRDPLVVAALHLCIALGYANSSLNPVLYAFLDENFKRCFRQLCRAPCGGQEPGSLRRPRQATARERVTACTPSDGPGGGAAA
# Experimental Protocol: Rat brain delta opioid receptor binding assay ([3H]DPDPE or [3H]naltrindole)
# Measurement Setup: rat forebrain membranes, 0.25 nM [3H]naltrindole; read-out: δ-binding (Naltrindole ligand) Ki
Entries whose Ki is below 300 nM take Fulfilled; entries at or above 300 nM take Not fulfilled.

Recorded results for 8 compounds are shown here.
COC(=O)c1cccc(Oc2cc(-c3ccccc3)ccc2NC[C@@H]2CCCN2)c1: Not fulfilled
COc1ccc(CCc2ccc(NC[C@@H]3CCCN3)c(Oc3ccc(OC)cc3)c2)cc1: Fulfilled
CCN(CC)C(=O)c1ccc(NC[C@@H]2CCCN2)c(Oc2ccccc2)c1: Not fulfilled
COc1ccc(Oc2cc(-c3ccsc3)ccc2NC[C@@H]2CCCN2)cc1: Fulfilled
COc1ccc(Oc2cc(CCc3ccc(F)cc3)ccc2NC[C@@H]2CCCN2)cc1: Not fulfilled
NC(=O)c1ccc(Oc2cc(-c3ccccc3)ccc2NC[C@@H]2CCCN2)cc1: Fulfilled
COc1ccc(Oc2cc(CCc3ccccc3)ccc2NC[C@@H]2CCCN2)cc1: Fulfilled
COc1cccc(Oc2cc(-c3ccccc3)ccc2NC[C@@H]2CCCN2)c1: Fulfilled

Now for another entry.
Identify whether the compound N#Cc1ccc(Oc2cc(-c3ccccc3)ccc2NC[C@@H]2CCCN2)cc1 records Ki below 300 nM. Not fulfilled

---

Reported pEC50 values for a set of compounds
# Measured On: UniProtKB P32300
# Experimental Protocol: [35S]GTPγS δ-opioid receptor functional assay (EC50, relative efficacy, % inhibition)
# Format: biochemical
# Set-up: NG108-15 cell membranes were purchased from Applied Cell Sciences (Rockville, Md.)
// scale note: pEC50 = -log10(conc_M); give the bare number

Answered examples (4):
COc1ccc(Oc2cc(-c3cccnc3)ccc2NC[C@@H]2CCCN2)cc1 [Cpd 39]: 6.95
CCN(CC)C(=O)c1ccc(NC[C@@H]2CCCN2)c(Oc2ccccc2OC)c1 [Cpd 11]: 6.50
Oc1ccc(Oc2cc(-c3cccnc3)ccc2NC[C@@H]2CCCN2)cc1 [Cpd 45]: 7.39
COc1ccc(Oc2ccc(NC[C@@H]3CCCN3)c(Oc3ccc(OC)cc3)c2)cc1 [Cpd 53]: 6.50

Sample NC(=O)c1cccc(Oc2cc(-c3ccccc3)ccc2NC[C@@H]2CCCN2)c1 [Cpd 30] ; pEC50 observed: 5.99

---

Catalogue of compounds with associated pKi
# Measured On: Delta Opioid Receptor (Rattus norvegicus)
# Construct: the forebrains were homogenized in Tris buffer in a Teflon®-glass homogenizer; from tissue; host or cells: forebrain of male Wistar rats, particulate membrane preparation
# Experimental Protocol: Rat brain delta opioid receptor binding assay ([3H]DPDPE or [3H]naltrindole)
// returns pKi (minus log10 of molar concentration), number only

COc1ccc(Oc2cc(-c3ccccc3)ccc2N2CCNCC2)cc1: 7.10
CNCCNc1ccc(Oc2ccc(OC)cc2)cc1Oc1ccc(OC)cc1: 7.62
COc1ccc(Oc2cc(-c3ccccc3)ccc2NC[C@@H]2CCCN2)cc1: 7.54
CCN(CC)C(=O)/C=C/c1ccc(NC[C@@H]2CCCN2)c(Oc2ccc(OC)cc2)c1: 8.22
COc1ccc(Oc2cc(-c3cncc(C)c3)ccc2NC[C@@H]2C[C@@H](F)CN2)cc1: 8.17

The reported value for Oc1ccc(Oc2cc(-c3cccnc3)ccc2NC[C@@H]2CCCN2)cc1 in terms of pKi is 8.27

# compound COc1ccc(Oc2cc(-c3cccnc3)ccc2NC[C@@H]2CCCN2)cc1 ; its pKi = 7.66

Measured pKi, COc1ccc(Oc2ccc(NC3CCCC(N)C3)c(Oc3ccc(OC)cc3)c2)cc1 (centres unmarked) : 7.39

---

# Measured On: Mu Opioid Receptor (Rattus norvegicus)
# Construct: the forebrains were homogenized in Tris buffer in a Teflon®-glass homogenizer; from tissue; host or cells: forebrain of male Wistar rats, particulate membrane preparation
# Sequence (P33535 whole entry): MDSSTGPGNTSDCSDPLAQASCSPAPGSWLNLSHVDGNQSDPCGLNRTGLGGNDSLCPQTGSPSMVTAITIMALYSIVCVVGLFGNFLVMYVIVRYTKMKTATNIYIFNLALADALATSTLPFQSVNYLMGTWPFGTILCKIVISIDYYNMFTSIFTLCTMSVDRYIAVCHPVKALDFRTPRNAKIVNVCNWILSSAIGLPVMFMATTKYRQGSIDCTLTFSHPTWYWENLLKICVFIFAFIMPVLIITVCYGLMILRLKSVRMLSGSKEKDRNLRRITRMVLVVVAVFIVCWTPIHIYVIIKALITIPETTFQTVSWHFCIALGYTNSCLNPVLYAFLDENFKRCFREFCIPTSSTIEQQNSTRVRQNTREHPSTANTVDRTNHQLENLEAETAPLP
# Experimental Protocol: Rat brain mu opioid receptor binding assay ([3H]DAMGO)
Measured pKi by item
Schema: pKi number; meaning minus log10 of the concentration expressed in molar units.

COc1ccc(Oc2cc(-c3cncc(C)c3)ccc2NC[C@@H]2C[C@@H](F)CN2)cc1: 5.33
CCN(CC)C(=O)/C=C/c1ccc(NC[C@@H]2CCCN2)c(Oc2ccc(OC)cc2)c1: 5.47
NC(=O)c1cccc(Oc2cc(-c3ccccc3)ccc2NC[C@@H]2CCCN2)c1: 5.24

What the record says about CCN(CC)C(=O)c1cccc(CCc2ccc(NC[C@@H]3CCCN3)c(Oc3ccc(OC)cc3)c2)c1 : pKi is 5.05

pKi measured on COc1ccc(Oc2ccc(NC3CCCNC3)c(Oc3ccc(OC)cc3)c2)cc1 (racemic) = 5.01

pKi reported for this molecule CCN(CC)C(=O)c1ccc(NC[C@@H]2CCCN2)c(Oc2ccc(OC)cc2)c1 : 6.03

Memo: Oc1ccc(Oc2cc(-c3cccnc3)ccc2NC[C@@H]2CCCN2)cc1 , reported pKi: 5.35

---

# key: entry, value: Ki
# Measured On: Delta Opioid Receptor (Mus musculus, UniProt P32300)
# Construct: NG108-15 cell membranes were purchased from Applied Cell Sciences (Rockville, Md.); host or cells: NG108-15 cell membranes (purchased)
# Sequence (P32300 whole entry): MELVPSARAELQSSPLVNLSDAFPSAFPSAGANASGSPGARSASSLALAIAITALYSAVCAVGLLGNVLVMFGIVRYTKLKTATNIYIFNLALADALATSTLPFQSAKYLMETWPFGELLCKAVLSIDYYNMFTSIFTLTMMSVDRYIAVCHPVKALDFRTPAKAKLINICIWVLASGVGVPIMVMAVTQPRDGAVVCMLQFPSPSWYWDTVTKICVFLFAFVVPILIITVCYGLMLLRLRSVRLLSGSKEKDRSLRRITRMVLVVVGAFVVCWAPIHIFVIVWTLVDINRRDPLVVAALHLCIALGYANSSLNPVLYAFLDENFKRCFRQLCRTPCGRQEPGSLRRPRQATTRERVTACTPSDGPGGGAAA
# Experimental Protocol: NG108-15, 24-well delta opioid receptor binding assay ([3H]naltrindole)
# Measurement Setup: NG108-15 cell membranes, ~0.2 nM [3H]naltrindole; read-out: δ-binding NG108 cell membrane Ki
Return type: number; implicit unit nM.

Example entries begin here.
CCN(C[C@@H]1CCCN1)c1ccc(-c2cccnc2)cc1Oc1ccc(OC)cc1: 29
COc1ccc(Oc2cc(-c3cncc(C#N)c3)ccc2NC[C@@H]2CCCN2)cc1: 0.436
COc1ccc(Oc2cc(-c3cncnc3)ccc2NC[C@@H]2CCCN2)cc1: 1.39

The record that follows has no Ki shown yet.
// recorded Ki for CCN(C[C@@H]1CCCN1)c1ccc(-c2cncnc2)cc1Oc1ccc(OC)cc1 : 77

---

Listed next: entries and their corresponding pEC50.
# Measured On: δ-opioid receptor (Mus musculus)
# Experimental Protocol: [35S]GTPγS δ-opioid receptor functional assay (EC50, relative efficacy, % inhibition)
# Format: biochemical
# Set-up: NG108-15 cell membranes were purchased from Applied Cell Sciences (Rockville, Md.)
# Measurement Setup: read-out: GTPγS δ-opioid receptor EC50
Formally, pEC50 is defined as -log10 of the concentration c, with c in mol/L.

COc1ccc(Oc2cc(-c3cncc(C#N)c3)ccc2NC[C@@H]2CCCN2)cc1: 6.93

Alright, here's another compound for you.
Quick note, pEC50 for CCN(CC)C(=O)CCc1ccc(NC[C@@H]2CCCN2)c(Oc2ccc(OC)cc2)c1 landed at 7.41

---

Recorded measurements of pKi, one per entry
# Measured On: Delta Opioid Receptor (Rattus norvegicus)
# Construct: the forebrains were homogenized in Tris buffer in a Teflon®-glass homogenizer; from tissue; host or cells: forebrain of male Wistar rats, particulate membrane preparation
# Experimental Protocol: Rat brain delta opioid receptor binding assay ([3H]DPDPE or [3H]naltrindole)
# Measurement Setup: rat forebrain membranes, 0.25 nM [3H]naltrindole; read-out: δ-binding (Naltrindole ligand) Ki
pKi here: minus log base 10 of the concentration, concentration in moles per litre.

COc1ccc(Oc2cc(-c3ccoc3)ccc2NC[C@@H]2CCCN2)cc1: 6.69
CNCCNc1ccc(-c2ccccc2)cc1Oc1ccc(OC)cc1: 6.72

Lab note: Clc1cccc(Cl)c1Oc1cc(-c2ccccc2)ccc1NC[C@@H]1CCCN1 gave pKi of 6.97

pKi for CCN(CC)C(=O)c1cccc(Oc2cc(-c3ccccc3)ccc2NC[C@@H]2CCCN2)c1 is 6.51

According to the records, this compound COC(=O)c1ccc(Oc2cc(-c3ccccc3)ccc2NC[C@@H]2CCCN2)cc1 displays pKi of 6.11

According to the records, this compound N#Cc1cccc(Oc2cc(-c3ccccc3)ccc2NC[C@@H]2CCCN2)c1 displays pKi of 6.40

pKi for COc1ccc(Oc2cc(-c3ccc4ccccc4c3)ccc2NC[C@@H]2CCCN2)cc1 is 6.54

Lab note: CCN(CC)C(=O)c1ccc(Oc2cc(-c3ccccc3)ccc2NC[C@@H]2CCCN2)cc1 gave pKi of 6.55

compound CCN(CC)C(=O)c1ccc(NC[C@@H]2CCCN2)c(Oc2ccc(OC)cc2)c1 , pKi observed: 6.03
